Biological target: T1, PcrV (aa136-257).6xhis (Pseudomonas aeruginosa)
T1 chain: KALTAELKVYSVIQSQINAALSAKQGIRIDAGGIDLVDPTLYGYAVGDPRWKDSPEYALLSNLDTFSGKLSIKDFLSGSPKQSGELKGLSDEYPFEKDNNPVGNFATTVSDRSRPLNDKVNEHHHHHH
Test: SPR (Biacore T200), mAb captured via anti-human Fc, PcrV injected, 25 C
Tag: true (1) if measured t½ is not below 0.2 h, false (0) if it is.

Answered examples (4):
- binder: "H1H29339P (antibody, V domains shown) VH: EVQLVESGGDLVQPGGSLRLSCAASGFTFNTYAMNWVRQAPGKGLEWVAVIGGSGYSTNYADSVKGRFTISRDNSKNTLYLQMNSLRTEDTAVYYCAKEGNIVALYWYFDLWGRGTLVTVSS VL: DIQMTQSPSSLSASVGDRVTITCRASQSISRYLNWYQQKPGKAPKLLIYAASSLQGGVPSKFSGSGSGTDFTLTISSLQPEDFATYYCQQSSTTPLTFGGGTKVEIKR"
  category: "true (1)"
- binder: "H1H29336P (antibody, V domains shown) VH: EVQLVESGGGLVQPGGSLRLSCAASGFTFSSYAMTWVRQAPGKGLEWVSSIRGSGYSSDYADSVKGRFTISRDNSENTVYLQMNRLRAEDTAVYYCAKERSVTAYYYYGMDVWGQGTTVTVSS VL: DIQLTQSPSFLSASVGDRVTITCWASQDISSFLTWYQQKPGIAPKLLIYTASTLQSGVPSRFSGSGSGTEFTLTISSLQPEDFATYYCQQLKSYPLTFGGGTKVEIKR"
  category: "true (1)"
- binder: "H1H29332P (antibody, V domains shown) VH: EVQLVESGGDLVQPGGSLRLSCKASGFTFSTFAMNWVRQAPGRGLEWVSAIGASGYSTYYVDSMKGRFTISRDNSKNTLYLQMNSLGAEDTAVYYCAKEYSVSSNYYYGMDVWGQGTTVTVSS VL: DIQMTQSPSSLSASVGDRVTITCRASQTIRRYLNWYQQKAGKAPKLLIYAASSLLSGVPSRFSASGSGTDFTLTISSLQPEDFSTYYCQQTYSIPITFGQGTRLEIKR"
  category: "true (1)"
- binder: "H1H29329P (antibody, V domains shown) VH: EVQLVESGGGLVQPGGSLRLSCAASGFTFSDHEMNWVRQAPGKGLEWISYIGSGVVTMYYADSVRGRFTISRDNAKKTLYLQMNSLRAEDTAVYYCARDRGYYFGSEAFHYWGQGTLVTVSS VL: DIQMTQSPSTLSASVGDRVTITCRASQSISNWLAWYQQKPGKAPKLLIYKSSSLESGVPSRFSGSGSGTEFTLTISSLQPDDFATYYCQQYKSYSLTFGGGTKVEIKR"
  category: "false (0)"

Textbook exercise: given the entry REGN3514 (antibody, V domains shown, also called Control I; Control I-REGN3514) VH: EMQLLESGGGLVQPGGSLRLSCAASGFTFSSYAMNWVRQAPGEGLEWVSAITISGITAYYTDSVKGRFTISRDNSKNTLYLQMNSLRAGDTAVYYCAKEEFLPGTHYYYGMDVWGQGTTVTVSS VL: AIQMTQSPSSLSASVGDRVTITCRASQGIRNDLGWYQQKPGKAPKLVIYSASTLQSGVPSRFSGSGSGTDFTLSISSLQPDDFATYYCLQDYNYPWTFGQGTKVEIKR , state whether its t½ is greater than or equal to 0.2 h. true (1)
